Give TGI for every item shown.
System: OVCAR-5 ovarian
Assay: NCI tumour cell line growth inhibition, 48 h

What TGI value was documented for this molecule, CSc1n[n+](C)cc(N)c1N ?
> 100 µM

What TGI value was documented for this molecule, CCN(CC)C(=O)CCCCCCCCC1CO1 (configuration not stated) ?
> 100 µM

What TGI value was documented for this molecule, COC(=O)/C=C1/OC(c2ccccc2)=C(Cl)C1=O ?
35.6 µM

What TGI value was documented for this molecule, C=C1C(=O)O[C@H]2[C@H]1CC/C(COC(=O)c1ccc(C(=O)O)s1)=C\CC[C@@]1(C)O[C@@H]21 ?
10.1 µM

What TGI value was documented for this molecule, CCCc1ccc(N=Cc2cc(OC)c(OC)c(OC)c2)cc1 ?
> 100 µM

What TGI value was documented for this molecule, CC(NCCS(=O)(=O)O)C(=O)O (configuration not stated) ?
> 100 µM

What TGI value was documented for this molecule, COC(=O)c1c(O)ccc2c1c1c(n2C)C(=O)c2ccccc2C1=O ?
> 100 µM

What TGI value was documented for this molecule, Nc1ncnc2c1ncn2C1OC(C(=O)O)C(O)C1O (configuration not stated) ?
> 100 µM

What TGI value was documented for this molecule, OC1CCC(C2C3CCCCC3C3CCCCC3C2C2CCC(O)CC2)CC1 (configuration not stated) ?
> 100 µM

What TGI value was documented for this molecule, CCCCCc1c(CCCC)c(=O)[nH]c2cc(CNCC(OC)OC)ccc12 ?
28 µM

What TGI value was documented for this molecule, C/C(=N/O)c1cccc(Nc2nc3ccccc3c3[nH]c4ccccc4c23)c1 ?
9.27 µM

What TGI value was documented for this molecule, C=C(Br)CN(C#N)CC(=C)Br ?
> 100 µM

###

Tested on: A549 NSCLC
Give GI50 for every item shown.

What GI50 value was documented for this compound, O=C(/C=C/c1ccc([N+](=O)[O-])o1)NNC(=O)c1cc2ccccc2cc1O ?
3.95 µM

What GI50 value was documented for this compound, O=Nc1c2cccnc2n2nnc3ccc(Cl)cc3c12 ?
3.98 µM

What GI50 value was documented for this compound, [Cl][Sn]([c]1ccccc1)[c]1ccccc1 ?
17.5 µM

What GI50 value was documented for this compound, CCOC(=O)/C(C1=CC(=O)C(=O)c2ccccc21)=C(/C)NCc1ccccc1 ?
2.4 µM

What GI50 value was documented for this compound, ClCCn1cnc2c(SCc3ccccc3)ncnc21 ?
1.22 µM

What GI50 value was documented for this compound, NC(N)=N/N=C/c1c(-c2cc(Cl)sc2Cl)nc2n1CCS2 ?
9.57 µM

What GI50 value was documented for this compound, Cc1ccc2c(c1)sc(-c1ccc(N(C)C)cc1)[n+]2C ?
0.741 µM

What GI50 value was documented for this compound, OCC1OC(N2C=C(c3nc4ccccc4s3)C3C=CC=CC32)C(O)C1O (configuration not stated) ?
12.7 µM

What GI50 value was documented for this compound, CCCCS(=N)(=O)CC[C@H](N)C(=O)O (some centres not stated) ?
> 8030 µM

What GI50 value was documented for this compound, Cc1ccc(-c2cc3nc(-c4ccccc4)nc(C(Cl)Cl)n3n2)cc1 ?
0.927 µM

What GI50 value was documented for this compound, CC(O)C(NC(=O)C(CS)NC(=O)C(CO)NC(=O)C(CCCCN)NC(=O)C(Cc1c[nH]c2ccccc12)NC(=O)C(Cc1ccc(O)cc1)NC(=O)C(CS)NC(=O)C(N)Cc1ccccc1)C(N)=O (configuration not stated) ?
18.7 µM

What GI50 value was documented for this compound, N#CC1C(N)=NNC1c1ccc(-c2ccc(-c3nc4ccccc4o3)cc2)o1 (configuration not stated) ?
32.3 µM

Values were extracted from PubChem BioAssay (NCI).
